- measured on: NS3 (Hepatitis C virus)
- Sequence (A3EZJ3 whole entry): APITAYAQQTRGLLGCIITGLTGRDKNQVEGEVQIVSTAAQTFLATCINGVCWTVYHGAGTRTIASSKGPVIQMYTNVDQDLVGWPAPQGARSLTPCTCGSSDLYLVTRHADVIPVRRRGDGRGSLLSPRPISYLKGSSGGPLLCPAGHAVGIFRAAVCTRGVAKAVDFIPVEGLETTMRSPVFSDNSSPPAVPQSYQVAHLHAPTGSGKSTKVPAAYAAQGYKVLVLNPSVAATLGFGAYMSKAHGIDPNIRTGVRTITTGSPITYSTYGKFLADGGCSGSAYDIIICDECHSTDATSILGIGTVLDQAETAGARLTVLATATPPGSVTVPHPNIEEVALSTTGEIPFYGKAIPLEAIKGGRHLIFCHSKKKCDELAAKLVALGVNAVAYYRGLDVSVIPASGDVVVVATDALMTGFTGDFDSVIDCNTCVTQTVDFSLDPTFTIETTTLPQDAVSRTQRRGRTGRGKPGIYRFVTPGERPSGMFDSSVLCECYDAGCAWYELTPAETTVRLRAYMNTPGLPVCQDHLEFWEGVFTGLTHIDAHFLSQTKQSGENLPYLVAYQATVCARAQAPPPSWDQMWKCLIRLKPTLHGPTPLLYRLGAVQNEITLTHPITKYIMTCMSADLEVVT
*1 amine or outer side, *2 acyl side, *3 side chain or, on linkers, in order; H or OH if unused. Where a SMILES comes first, the peptide text is derived from it. [ ]: non-standard residue; d: D form. The star is where a group is joined. Abu(ψCOCO) = CC[C@H](N[*:1])C(=O)C(=O)[*:2]; X1 = O=C(C(=O)[*:2])[C@H](CC(F)F)N[*:1]; Pyrazinecarbonyl = O=C(c1cnccn1)*; Cha = N[C@@H](CC1CCCCC1)C(=O)O
quantity: IC50 (nM)

For orientation, consider the following solved cases.
compound	IC50 [nM]
CC[C@H](NC(=O)[C@H](CC1CCCCC1)NC(=O)[C@@H](NC(=O)[C@H](CC(C)C)NC(=O)c1cnccn1)[C@@H](C)CC)C(=O)C(=O)NCC(=O)NS(=O)(=O)c1nnc(NC(C)=O)s1	250
CC[C@H](NC(=O)[C@H](CC1CCCCC1)NC(=O)[C@@H](NC(=O)[C@H](CC(C)C)NC(=O)c1cnccn1)[C@@H](C)CC)C(=O)C(=O)NCC(=O)NS(=O)(=O)c1ccc([N+](=O)[O-])cc1	920
CC[C@H](NC(=O)[C@H](CC1CCCCC1)NC(=O)[C@@H](NC(=O)[C@H](CC(C)C)NC(=O)c1cnccn1)[C@@H](C)CC)C(=O)C(=O)NCC(=O)NS(=O)(=O)c1ccc2ccccc2c1	1200
CC[C@H](C)[C@H](NC(=O)[C@H](CC(C)C)NC(=O)c1cnccn1)C(=O)N[C@@H](CC1CCCCC1)C(=O)N[C@@H](CC(F)F)C(=O)C(=O)NCC(=O)O (Pyrazinecarbonyl-LI[Cha][X1]G-OH)	60
CCCCCC(=O)Nc1nnc(S(=O)(=O)NC(=O)CNC(=O)C(=O)[C@H](CC(F)F)NC(=O)[C@H](CC2CCCCC2)NC(=O)[C@@H](NC(=O)[C@H](CC(C)C)NC(=O)c2cnccn2)[C@@H](C)CC)s1	20
CC[C@H](C)[C@H](NC(=O)[C@H](CC(C)C)NC(=O)c1cnccn1)C(=O)N[C@@H](CC1CCCCC1)C(=O)N[C@@H](CC(F)F)C(=O)C(=O)NCC(=O)NS(=O)(=O)c1cccc(-c2ccccc2)c1	60

1. CC[C@H](NC(=O)[C@H](CC1CCCCC1)NC(=O)[C@@H](NC(=O)[C@H](CC(C)C)NC(=O)c1cnccn1)[C@@H](C)CC)C(=O)C(=O)NCC(=O)NS(=O)(=O)c1cc(C(=O)O)ccc1Cl
2. CC[C@H](NC(=O)[C@H](CC1CCCCC1)NC(=O)[C@@H](NC(=O)[C@H](CC(C)C)NC(=O)c1cnccn1)[C@@H](C)CC)C(=O)C(=O)NCC(=O)NS(=O)(=O)Cc1ccccc1
3. CC[C@H](C)[C@H](NC(=O)[C@H](CC(C)C)NC(=O)c1cnccn1)C(=O)N[C@@H](CC1CCCCC1)C(=O)N[C@@H](CC(F)F)C(=O)C(=O)NCc1nn[nH]n1
4. CC[C@H](NC(=O)[C@H](CC1CCCCC1)NC(=O)[C@@H](NC(=O)[C@H](CC(C)C)NC(=O)c1cnccn1)[C@@H](C)CC)C(=O)C(=O)NCC(=O)O (Pyrazinecarbonyl-LI[Cha][Abu(ψCOCO)]G-OH)
Could you please order the items by IC50, going from the lowest number to the highest? Respond with an ordered listing of the labels, as requested.
3, 1, 4, 2
(3: 40 nM, 1: 110 nM, 4: 230 nM, 2: 12000 nM)

----------
pIC50: −log10 of the molar value.
Reported pIC50, UniProt:A3EZJ3.
quantity: pIC50

test smiles	measured on	pIC50
CC[C@H](C)[C@H](NC(=O)[C@H](CC(C)C)NC(=O)c1cnccn1)C(=O)N[C@@H](CC1CCCCC1)C(=O)N[C@@H](CC(F)F)C(=O)C(=O)NCC(=O)NS(=O)(=O)c1nnc(NC(=O)c2ccc(Cl)cc2)s1	UniProt:A3EZJ3	7.70

1. CC[C@H](C)[C@H](NC(=O)[C@H](CC(C)C)NC(=O)c1cnccn1)C(=O)N[C@@H](CC1CCCCC1)C(=O)N[C@@H](CC(F)F)C(=O)C(=O)NCC(=O)NS(=O)(=O)c1cc(Cl)cc(S(=O)(=O)NC(=O)c2ccccc2)c1
2. CC[C@H](NC(=O)[C@H](CC1CCCCC1)NC(=O)[C@@H](NC(=O)[C@H](CC(C)C)NC(=O)c1cnccn1)[C@@H](C)CC)C(=O)C(=O)NCc1nn[nH]n1
Which entry shows the lesser value of pIC50 here, 1 or 2 ? Selection: enter the item's label.
2
(2: 6.34, 1: 7.22)
